I'd appreciate it if you could supply normalized growth values for the items below.
# Protocol text: chemical genetic growth profiling, strain panel (AID 1159580);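 note: tested at 20 µM; growth read once vehicle control cultures reached saturation at 30 °C; 1 = growth at the plate median or of vehicle wells; lower values mean less growth of the strain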
# Condition summary: S. cerevisiae deletion strains, growth OD, locus YHR079C, strain IRE1, stronger effect = lower value
Out of some 5,500 compounds screened, about 2,000 (36%) were called active. About 18% were inconclusive and are not listed. This is one part of the list.
Form field (numeric): enter value without unit.

Query: Tell me normalized growth reported for CC[C@@H](C(=O)[C@@H](C)[C@@H](O)[C@H](C)[C@@H]1O[C@@H]([C@@H](CC)C(=O)O)CC[C@@H]1C)[C@H]1OC2(C=C[C@@H](O)[C@]3(CC[C@@](C)([C@H]4CC[C@](O)(CC)[C@H](C)O4)O3)O2)[C@H](C)C[C@@H]1C (stereo not given in full)
Result: 0.164

Query: Please report the measured normalized growth for `NC(=O)c1ccc(N)nc1`
Result: 1.02

Query: Output measured normalized growth for this item: CC12CC[C@@H](O)CC1=CC[C@@H]1C2CCC2(C)C(=O)CC[C@@H]12 (stereo not given in full)
Result: 0.96

Query: // fetch normalized growth given entry `CCCc1cc(OC)c2c(c1)OCO2`
Result: 0.946

Query: Consider the compound `COc1cc(C(=O)O)cc(OC)c1O` . State its measured normalized growth.
Result: 1.02

Query: Complete the entry with normalized growth for `CCOC(=O)c1ccc(N)cc1`
Result: 0.993

Query: Provide only the value of recorded normalized growth for COc1cc(C)c2c(c1C=O)Oc1c(c(C)c(O)c3c1C(O)OC3=O)OC2=O (stereo not given)
Result: 0.994

Query: Supply normalized growth value. Item: C[C@]12CCC3c4ccc(OS(=O)(=O)O)cc4CCC3C1CCC2=O (stereo not given in full)
Result: 0.961

Query: Give the value of normalized growth reported for the following: CC12CCCC(O)(C1)C1CC(C)(C)C1CC2 (stereo not given)
Result: 0.971

Query: Item OC1CCCCC1N1CCC(c2ccccc2)CC1 (stereo not given) : provide normalized growth
Result: 0.983

Query: State its normalized growth: `COc1cc(C(=O)Oc2c(Cl)cc(Cl)cc2C=Nc2cccc([N+](=O)[O-])c2)cc(OC)c1OC`
Result: 0.438

Query: State its normalized growth: `CC1(C)C/C(=N/Nc2ccc(C(F)(F)F)cc2)c2cc(C(C)(C)C)c(O)c(O)c2O1`
Result: 0.29

Query: State, in one line, measured normalized growth of `O=C(O)c1cc(=O)c(O)c2c(O)c(O)c(O)cc2c1`
Result: 0.546

Query: Consider the compound CC(=O)Oc1cc(C)c2c(c1C(OC(C)=O)OC(C)=O)Oc1c(c(C)c(OC(C)=O)c3c1C(OC(C)=O)OC3=O)OC2=O (stereo not given) . State its measured normalized growth.
Result: 0.93

Query: Annotate the compound `O=S(=O)(Nc1cc(C(F)(F)F)ccc1F)c1cc(C(F)(F)F)ccc1Cl` with its measured normalized growth.
Result: 0.824

Query: Could you please provide reported normalized growth for `Cc1onc(-c2ccccc2Cl)c1-c1nc2ccccc2c(=O)o1` ? Thanks!
Result: 0.936

Query: Provide normalized growth value for the following compound: `CS(=O)(=O)OCCCCOS(C)(=O)=O`
Result: 0.994

Query: Please supply the value of reported normalized growth for the item `C[C@@]12C(=O)OC(=O)[C@]1(C)C1CCC2O1`
Result: 0.173

Query: Kindly indicate its recorded normalized growth. Item: `C=CCc1cc(OC)c2c(c1OC)OCO2`
Result: 0.995

Query: Indicate the recorded normalized growth value for this compound: CC(=O)O[C@H]1CC[C@@]2(C)C(=CCC3C2CC[C@@]2(C)C3CC[C@@H]2C(C)CCCC(C)C)C1 (stereo not given in full)
Result: 0.974

Query: Identify normalized growth associated with the compound COc1ccc(C[C@H](N)C(=O)N[C@@H]2[C@@H](CO)OC(n3cnc4c(N(C)C)ncnc43)[C@@H]2O)cc1 (stereo not given in full)
Result: 0.98

Query: # return recorded normalized growth for entry `CO[C@@H]1[C@@H](O[C@@H]2O[C@H](C)[C@@H](O[C@H]3C[C@@](C)(O)[C@H](O)[C@H](C)O3)[C@H](N(C)C)[C@H]2O)[C@@H](CC=O)C[C@@H](C)[C@@H](O[C@H]2CC[C@H](N(C)C)[C@@H](C)O2)/C=C/C=C/C[C@H](C)OC(=O)C[C@H]1O`
Result: 0.961

Query: Item CC(C)C1=CC2=CCC3[C@](C)(CCC[C@]3(C)C(=O)O)C2CC1 (stereo not given in full) : provide normalized growth
Result: 0.851

Query: Retrieve normalized growth measured for CC(=O)Oc1cc(C)c2c(c1C=O)Oc1c(c(C)c(OC(C)=O)c3c1C(OC(C)=O)OC3=O)OC2=O (stereo not given) and print it.
Result: 0.883

Query: Using the record for `O=C(CO/N=C\c1ccc(Cl)cc1Cl)NNC(=S)Nc1cc(Cl)ccc1Cl` , state its measured normalized growth.
Result: 0.966
